meta.source: ChEMBL document CHEMBL1147197

Assay: Retention time, log K of the compound
Type: ADME
Record form. Attribute: log K. Fill in for each entry.
Numbers only.

Recorded log K, per entry:
[[record]]
given_smiles = "CC1(C)N([O])C(c2ccc(OCC(=O)O)cc2)=[N+]([O-])C1(C)C"
result_type = "log K"
assay_value = -0.372

[[record]]
given_smiles = "CC1(C)N([O])C(c2ccco2)=[N+]([O-])C1(C)C"
result_type = "log K"
assay_value = 0.405

[[record]]
given_smiles = "CC1(C)N([O])C(c2ccccc2F)=[N+]([O-])C1(C)C"
result_type = "log K"
assay_value = 0.577


For every listed record, write down its log K.
1. CC1(C)N([O])C(c2ccccc2O)=[N+]([O-])C1(C)C
2. CC1(C)N([O])C(c2ccc(Cl)cc2Cl)=[N+]([O-])C1(C)C
3. CC1(C)N([O])C(c2ccccc2)=[N+]([O-])C1(C)C
4. COc1ccc(C2=[N+]([O-])C(C)(C)C(C)(C)N2[O])cc1OC
5. COc1ccc(C2=[N+]([O-])C(C)(C)C(C)(C)N2[O])cc1
6. CC1(C)N([O])C(c2cccnc2)=[N+]([O-])C1(C)C
7. COc1ccc(C2=[N+]([O-])C(C)(C)C(C)(C)N2[O])c(OC)c1

Solution:
0.729
1.347
0.918
0.905
1.101
0.337
0.62

Exercise: Request the reported log K associated with `CC1(C)N([O])C(c2ccc3c(c2)OCO3)=[N+]([O-])C1(C)C`
Solution: 1.039

* * *

Tested on: PC-12
Assay: Hydrogen peroxide radical scavenging activity in PC12 cell by survival assay
Assay type: functional, cell-based, Homo sapiens
Conditions: Rattus norvegicus, read-out: Log EC50 (converted)
result_type: EC50 (µM)
One number for each entry, in µM.

Guide cases for EC50, answers given:
[[record]]
given_smiles = "COc1ccc(C2=[N+]([O-])C(C)(C)C(C)(C)N2[O])c(OC)c1"
tested_target = "PC-12"
assay_value = 25.1

[[record]]
given_smiles = "CC1(C)N([O])C(c2ccc3c(c2)OCO3)=[N+]([O-])C1(C)C"
tested_target = "PC-12"
assay_value = 29.5


Quick request: EC50 for each listed item, please.
1. CC1(C)N([O])C(c2ccc(Cl)cc2)=[N+]([O-])C1(C)C
2. COc1ccc(C2=[N+]([O-])C(C)(C)C(C)(C)N2[O])cc1O
3. CC1(C)N([O])C(c2cccc([N+](=O)[O-])c2)=[N+]([O-])C1(C)C
4. CC1(C)N([O])C(c2ccc(Br)cc2)=[N+]([O-])C1(C)C

Solution:
58.9
39.8
61.7
55

* * *

Assay: Partition coefficient, log P of the compound
Type: physicochemical
Conditions: octanol/water
Decide using logP: a value greater than or equal to 0.9 is rule met, a smaller one is rule not met.

Worked set:
[[record]]
given_smiles = "CC1(C)N([O])C(c2cccc([N+](=O)[O-])c2)=[N+]([O-])C1(C)C"
qualitative_label = "rule met"

[[record]]
given_smiles = "CC1(C)N([O])C(c2cccc(O)c2)=[N+]([O-])C1(C)C"
qualitative_label = "rule met"

[[record]]
given_smiles = "CC1(C)N([O])C(c2ccccc2)=[N+]([O-])C1(C)C"
qualitative_label = "rule met"

[[record]]
given_smiles = "CC1(C)N([O])C(c2ccc(Cl)cc2)=[N+]([O-])C1(C)C"
qualitative_label = "rule met"

[[record]]
given_smiles = "CN(C)c1ccc(C2=[N+]([O-])C(C)(C)C(C)(C)N2[O])cc1"
qualitative_label = "rule met"


Exercise: Is reported logP greater than or equal to 0.9 here: `CC1(C)N([O])C(c2ccccc2O)=[N+]([O-])C1(C)C`
Solution: rule met

Exercise: API: above_or_equal(metric=logP, cutoff=0.9) for item `COc1ccc(C2=[N+]([O-])C(C)(C)C(C)(C)N2[O])cc1OC`
Solution: rule met

Exercise: Hi, just wondering whether `COc1cc(C2=[N+]([O-])C(C)(C)C(C)(C)N2[O])ccc1O` shows logP of 0.9 or higher.
Solution: rule met

Exercise: Say whether `CC1(C)N([O])C(c2ccc(Cl)cc2Cl)=[N+]([O-])C1(C)C` shows logP of 0.9 or more.
Solution: rule met

Exercise: Reported logP at or above 0.9? `CC1(C)N([O])C(c2ccco2)=[N+]([O-])C1(C)C`
Solution: rule not met

* * *

Provide the recorded EC50 for the entries that follow.
Tested on: PC-12
Test: Hydrogen peroxide radical scavenging activity in PC12 cell by survival assay
Type: functional, cell-based, Homo sapiens
Details: Rattus norvegicus, read-out: Log EC50 (converted)
Give bare numbers, in µM.

Here are 3 compounds together with their reported answers.
[[record]]
given_smiles = "COc1cc(C2=[N+]([O-])C(C)(C)C(C)(C)N2[O])ccc1O"
assay_value = 32.4

[[record]]
given_smiles = "COc1ccc(C2=[N+]([O-])C(C)(C)C(C)(C)N2[O])cc1"
assay_value = 42.7

[[record]]
given_smiles = "CC1(C)N([O])C(c2ccc([N+](=O)[O-])cc2)=[N+]([O-])C1(C)C"
assay_value = 107


Exercise: Requested read-out: EC50. Entry: `CN(C)c1ccc(C2=[N+]([O-])C(C)(C)C(C)(C)N2[O])cc1`
Solution: 28.8

* * *

Assay: Partition coefficient, log P of the compound
Format: physicochemical
Conditions: octanol/water
Would you kindly list logP for each of these molecules?

[[record]]
given_smiles = "CC1(C)N([O])C(c2ccc([N+](=O)[O-])cc2)=[N+]([O-])C1(C)C"
assay_value = 1.68


Quick batch: logP for everything below.
1. COc1ccc(C2=[N+]([O-])C(C)(C)C(C)(C)N2[O])c(OC)c1
2. CC1(C)N([O])C(c2ccc(Br)cc2)=[N+]([O-])C1(C)C
3. CC1(C)N([O])C(c2ccc3c(c2)OCO3)=[N+]([O-])C1(C)C
4. COc1ccc(C2=[N+]([O-])C(C)(C)C(C)(C)N2[O])cc1

Solution:
1. 0.77
2. 2.46
3. 1.51
4. 1.62

Record logP for all entries; do not skip any.
1. CC1(C)N([O])C(c2ccccc2[N+](=O)[O-])=[N+]([O-])C1(C)C
2. CC1(C)N([O])C(c2ccc(O)cc2)=[N+]([O-])C1(C)C
3. CC1(C)N([O])C(c2ccccc2F)=[N+]([O-])C1(C)C

Solution:
1. 0.909
2. 0.619
3. 0.822

Please give logP, item by item, for the list that follows.
1. Cc1ccc(C2=[N+]([O-])C(C)(C)C(C)(C)N2[O])cc1
2. COc1ccc(C2=[N+]([O-])C(C)(C)C(C)(C)N2[O])cc1O
3. CC1(C)N([O])C(c2ccc(OCC(=O)O)cc2)=[N+]([O-])C1(C)C
4. CC1(C)N([O])C(c2cccnc2)=[N+]([O-])C1(C)C

Solution:
1. 1.9
2. 0.918
3. -0.518
4. 0.512
